Entry source: patent US20110230476A1

Entries annotated with measured IC50
testTarget: PI3Kα (p110α/p85α) (Homo sapiens)
Sequence (P42336 whole entry): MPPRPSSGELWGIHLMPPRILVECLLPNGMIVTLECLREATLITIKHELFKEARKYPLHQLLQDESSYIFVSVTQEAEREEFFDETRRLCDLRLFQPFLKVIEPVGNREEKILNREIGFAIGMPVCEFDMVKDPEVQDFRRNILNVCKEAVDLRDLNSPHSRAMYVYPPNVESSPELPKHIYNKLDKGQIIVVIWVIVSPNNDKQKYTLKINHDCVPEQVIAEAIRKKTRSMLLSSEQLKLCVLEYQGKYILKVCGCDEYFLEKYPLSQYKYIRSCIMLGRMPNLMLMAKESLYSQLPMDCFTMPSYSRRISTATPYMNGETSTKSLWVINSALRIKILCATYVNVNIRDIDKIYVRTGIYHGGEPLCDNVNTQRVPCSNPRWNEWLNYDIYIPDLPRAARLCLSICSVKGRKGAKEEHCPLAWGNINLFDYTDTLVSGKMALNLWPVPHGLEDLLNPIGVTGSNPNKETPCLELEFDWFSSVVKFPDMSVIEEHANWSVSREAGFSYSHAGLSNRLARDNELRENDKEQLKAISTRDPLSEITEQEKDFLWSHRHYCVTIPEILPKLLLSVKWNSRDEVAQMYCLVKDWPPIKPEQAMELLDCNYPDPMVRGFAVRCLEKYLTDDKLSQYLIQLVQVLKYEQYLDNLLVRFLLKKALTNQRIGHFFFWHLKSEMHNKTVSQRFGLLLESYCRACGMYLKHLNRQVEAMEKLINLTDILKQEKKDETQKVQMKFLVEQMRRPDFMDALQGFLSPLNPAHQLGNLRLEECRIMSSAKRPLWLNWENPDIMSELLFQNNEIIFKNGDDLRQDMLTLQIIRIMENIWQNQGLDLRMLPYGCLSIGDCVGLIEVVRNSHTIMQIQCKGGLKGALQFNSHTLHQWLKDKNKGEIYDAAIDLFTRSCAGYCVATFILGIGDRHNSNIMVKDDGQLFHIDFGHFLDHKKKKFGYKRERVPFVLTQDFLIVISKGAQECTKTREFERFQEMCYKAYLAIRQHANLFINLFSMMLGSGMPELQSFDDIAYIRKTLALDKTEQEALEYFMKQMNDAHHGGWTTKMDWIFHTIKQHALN
Sequence (P27986 whole entry partner): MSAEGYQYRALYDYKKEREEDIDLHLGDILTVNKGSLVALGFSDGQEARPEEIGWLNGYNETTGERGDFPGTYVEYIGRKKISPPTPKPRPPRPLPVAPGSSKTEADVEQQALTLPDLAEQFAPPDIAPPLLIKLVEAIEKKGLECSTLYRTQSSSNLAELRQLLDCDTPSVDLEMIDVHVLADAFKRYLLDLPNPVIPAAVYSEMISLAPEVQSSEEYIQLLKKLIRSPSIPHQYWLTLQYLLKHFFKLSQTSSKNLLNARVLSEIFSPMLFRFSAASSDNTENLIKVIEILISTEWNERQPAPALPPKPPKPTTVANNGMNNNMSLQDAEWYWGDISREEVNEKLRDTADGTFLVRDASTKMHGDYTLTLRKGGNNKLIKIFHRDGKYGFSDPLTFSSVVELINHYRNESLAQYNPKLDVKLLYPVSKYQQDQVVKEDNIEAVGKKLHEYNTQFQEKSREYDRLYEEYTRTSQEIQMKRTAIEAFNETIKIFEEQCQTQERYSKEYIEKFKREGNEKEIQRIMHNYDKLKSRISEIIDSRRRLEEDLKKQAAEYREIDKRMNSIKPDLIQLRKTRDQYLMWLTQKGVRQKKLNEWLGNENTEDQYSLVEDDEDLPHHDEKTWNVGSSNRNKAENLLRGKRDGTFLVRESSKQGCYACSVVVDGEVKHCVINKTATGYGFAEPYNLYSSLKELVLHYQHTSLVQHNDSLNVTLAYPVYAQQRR
method: HTRF assay, potency against active PI3Kα
conditionNotes: HTRF; [ATP]=50 μM, [di-C8-PIP2]=10 μM; 30 min pre-incubation; read-out: PI3Kα Inhibition
Text: Homogeneous Time Resolved Fluorescence (HTRF) Assay Protocol for Potency Assessment Against the Active Forms of PI3Kα, PI3Kβ, and PI3Kγ The mechanics of the assay platform are best described by the vendor (Millipore, Billerica, Mass.) on their website at the following URL: www.millipore.com/coa/tech1/74jt4z. […]

Use the examples below as a reference point.
Cn1cncc1/C=C/C(=O)CCC(=O)N1CCN(Cc2cc3nc(-c4cccc5[nH]ncc45)nc(N4CCOCC4)c3s2)CC1 100 to 1000 nM
C/C(=C\c1ncc[nH]1)C(=O)CCC(=O)N1CCN(Cc2cc3nc(-c4cccc5[nH]ncc45)nc(N4CCOCC4)c3s2)CC1 100 to 1000 nM
CC(C)=CC(=O)CCCC(=O)N1CC=C(c2cc(-c3cnc(N)nc3)nc(N3CCOCC3)c2)CC1 10 to 100 nM
CN(C)C/C=C/C(=O)NCC(=O)N1CCN(Cc2cc3nc(-c4cccc5[nH]ncc45)nc(N4CCOCC4)c3s2)CC1 100 to 1000 nM

Please turn your attention to the following entry.
Task: What IC50 value was documented for this compound, C/C=C/C(=O)CCC(=O)N1CCN(c2ccnc3ccc(/C=C4\SC(=O)NC4=O)cc23)CC1 ?
Result: 100 to 1000 nM
